// reported Activity for each item listed
Test: Inhibition of growth hormone spontaneous secretion in rat anterior pituitary cells assessed as hormone level by radioimmunoassay relative to somatostatin
Assay type: functional, Pituitary gland cell
Parameters: scale not given: the % may be the effect or the level left
Bridge positions count the residues as written; N and C are the ends. Square brackets hold non-standard residues; d marks the D form. Peptide text beside a SMILES is read from it.
Field: numeric (%). Do not append units.

Recorded results for 5 compounds are shown here.
C[C@H](N)C(=O)NCC(=O)N[C@H]1CSSC[C@@H](C(=O)O)NC(=O)[C@H](CO)NC(=O)[C@H]([C@@H](C)O)NC(=O)[C@H](Cc2ccccc2)NC(=O)[C@H]([C@@H](C)O)NC(=O)[C@H](CCCCN)NC(=O)[C@H](Cc2c[nH]c3ccccc23)NC(=O)[C@H](Cc2ccccc2)NC(=O)[C@H](Cc2ccc(O)cc2)NC(=O)[C@H](CC(N)=O)NC(=O)[C@H](CCCCN)NC1=O (H-AGCKNYFWKTFTSC-OH; disulfide 3-14) has a reported Activity of 29

Kindly note the recorded Activity for C[C@@H](O)[C@@H]1NC(=O)[C@H](Cc2ccccc2)NC(=O)[C@H]([C@@H](C)O)NC(=O)[C@H](CCCCN)NC(=O)[C@H](Cc2c[nH]c3ccccc23)NC(=O)[C@H](Cc2ccccc2)NC(=O)[C@H](Cc2ccccc2)NC(=O)[C@H](CC(N)=O)NC(=O)[C@H](CCCCN)NC(=O)[C@@H](NC(=O)CNC(=O)[C@@H](N)Cc2ccc(O)cc2)CSSC[C@@H](C(=O)O)NC(=O)[C@H](CO)NC1=O , which is 116

// field: Activity; key: C[C@H](N)C(=O)NCC(=O)N[C@H]1CSSC[C@@H](C(=O)O)NC(=O)[C@H](CO)NC(=O)[C@H]([C@@H](C)O)NC(=O)[C@H](Cc2ccccc2)NC(=O)[C@H]([C@@H](C)O)NC(=O)[C@H](CCCCN)NC(=O)[C@@H](Cc2ccc(O)cc2)NC(=O)[C@H](Cc2ccccc2)NC(=O)[C@H](Cc2ccccc2)NC(=O)[C@H](CC(N)=O)NC(=O)[C@H](CCCCN)NC1=O (H-AGCKNFF[dY]KTFTSC-OH; disulfide 3-14) ; value = 10

Sample C[C@H](N)C(=O)NCC(=O)N[C@H]1CSSC[C@@H](C(=O)O)NC(=O)[C@H](CO)NC(=O)[C@H]([C@@H](C)O)NC(=O)[C@H](Cc2ccc(O)cc2)NC(=O)[C@H]([C@@H](C)O)NC(=O)[C@H](CCCCN)NC(=O)[C@H](Cc2c[nH]c3ccccc23)NC(=O)[C@H](Cc2ccccc2)NC(=O)[C@H](Cc2ccccc2)NC(=O)[C@H](CC(N)=O)NC(=O)[C@H](CCCCN)NC1=O (H-AGCKNFFWKTYTSC-OH; disulfide 3-14) ; Activity observed: 65

Looking up C[C@@H](O)[C@@H]1NC(=O)[C@H](Cc2ccccc2)NC(=O)[C@H]([C@@H](C)O)NC(=O)[C@H](CCCCN)NC(=O)[C@@H](Cc2c[nH]c3ccccc23)NC(=O)[C@H](Cc2ccccc2)NC(=O)[C@H](Cc2ccccc2)NC(=O)[C@H](CC(N)=O)NC(=O)[C@H](CCCCN)NC(=O)[C@@H](NC(=O)CNC(=O)[C@@H](N)Cc2ccc(O)cc2)CSSC[C@@H](C(=O)O)NC(=O)[C@H](CO)NC1=O , I see its Activity listed as 400

***
For reference, reported Activity for C[C@H](N)C(=O)NCC(=O)N[C@H]1CSSC[C@@H](C(=O)O)NC(=O)[C@H](CO)NC(=O)[C@H]([C@@H](C)O)NC(=O)[C@H](Cc2ccccc2)NC(=O)[C@H]([C@@H](C)O)NC(=O)[C@H](CCCCN)NC(=O)[C@H](Cc2c[nH]c3ccccc23)NC(=O)[C@H](Cc2ccc(O)cc2)NC(=O)[C@H](Cc2ccccc2)NC(=O)[C@H](CC(N)=O)NC(=O)[C@H](CCCCN)NC1=O (H-AGCKNFYWKTFTSC-OH; disulfide 3-14) stands at 108

* * *

Experiment: Partition coefficient, K of the compound using system BAW at 4:1:5 ratio
Format: physicochemical
Bridge positions count the residues as written; N and C are the ends. Square brackets hold non-standard residues; d marks the D form. Peptide text beside a SMILES is read from it.
Measured endpoint: K
Field format: numeric only.

Memo: C[C@H](N)C(=O)NCC(=O)N[C@H]1CSSC[C@@H](C(=O)O)NC(=O)[C@H](CO)NC(=O)[C@H]([C@@H](C)O)NC(=O)[C@H](Cc2ccccc2)NC(=O)[C@H]([C@@H](C)O)NC(=O)[C@H](CCCCN)NC(=O)[C@@H](Cc2ccc(O)cc2)NC(=O)[C@H](Cc2ccccc2)NC(=O)[C@H](Cc2ccccc2)NC(=O)[C@H](CC(N)=O)NC(=O)[C@H](CCCCN)NC1=O (H-AGCKNFF[dY]KTFTSC-OH; disulfide 3-14) , reported K: 0.24

Given item C[C@H](N)C(=O)NCC(=O)N[C@H]1CSSC[C@@H](C(=O)O)NC(=O)[C@H](CO)NC(=O)[C@H]([C@@H](C)O)NC(=O)[C@H](Cc2ccc(O)cc2)NC(=O)[C@H]([C@@H](C)O)NC(=O)[C@H](CCCCN)NC(=O)[C@H](Cc2c[nH]c3ccccc23)NC(=O)[C@H](Cc2ccccc2)NC(=O)[C@H](Cc2ccccc2)NC(=O)[C@H](CC(N)=O)NC(=O)[C@H](CCCCN)NC1=O (H-AGCKNFFWKTYTSC-OH; disulfide 3-14) , the value recorded as its K is 0.24

# K of C[C@H](N)C(=O)NCC(=O)N[C@H]1CSSC[C@@H](C(=O)O)NC(=O)[C@H](CO)NC(=O)[C@H]([C@@H](C)O)NC(=O)[C@H](Cc2ccccc2)NC(=O)[C@H]([C@@H](C)O)NC(=O)[C@H](CCCCN)NC(=O)[C@H](Cc2c[nH]c3ccccc23)NC(=O)[C@H](Cc2ccccc2)NC(=O)[C@H](Cc2ccc(O)cc2)NC(=O)[C@H](CC(N)=O)NC(=O)[C@H](CCCCN)NC1=O (H-AGCKNYFWKTFTSC-OH; disulfide 3-14) = 0.23

K for C[C@H](N)C(=O)NCC(=O)N[C@H]1CSSC[C@@H](C(=O)O)NC(=O)[C@H](CO)NC(=O)[C@H]([C@@H](C)O)NC(=O)[C@H](Cc2ccccc2)NC(=O)[C@H]([C@@H](C)O)NC(=O)[C@H](CCCCN)NC(=O)[C@H](Cc2c[nH]c3ccccc23)NC(=O)[C@H](Cc2ccc(O)cc2)NC(=O)[C@H](Cc2ccccc2)NC(=O)[C@H](CC(N)=O)NC(=O)[C@H](CCCCN)NC1=O (H-AGCKNFYWKTFTSC-OH; disulfide 3-14) is 0.23

Further cases:
Per the records, this molecule ( C[C@@H](O)[C@@H]1NC(=O)[C@H](Cc2ccccc2)NC(=O)[C@H]([C@@H](C)O)NC(=O)[C@H](CCCCN)NC(=O)[C@H](Cc2c[nH]c3ccccc23)NC(=O)[C@H](Cc2ccccc2)NC(=O)[C@H](Cc2ccccc2)NC(=O)[C@H](CC(N)=O)NC(=O)[C@H](CCCCN)NC(=O)[C@@H](NC(=O)CNC(=O)[C@@H](N)Cc2ccc(O)cc2)CSSC[C@@H](C(=O)O)NC(=O)[C@H](CO)NC1=O ) has K equal to 0.41

The reported value for C[C@@H](O)[C@@H]1NC(=O)[C@H](Cc2ccccc2)NC(=O)[C@H]([C@@H](C)O)NC(=O)[C@H](CCCCN)NC(=O)[C@@H](Cc2c[nH]c3ccccc23)NC(=O)[C@H](Cc2ccccc2)NC(=O)[C@H](Cc2ccccc2)NC(=O)[C@H](CC(N)=O)NC(=O)[C@H](CCCCN)NC(=O)[C@@H](NC(=O)CNC(=O)[C@@H](N)Cc2ccc(O)cc2)CSSC[C@@H](C(=O)O)NC(=O)[C@H](CO)NC1=O in terms of K is 0.34
